Tested on: Grans
Assay: Peptidases to distinguish leukemia from non-leukemia, granulocytes
Assay type: cell-based, human
Parameters: unit not given here
Conditions: N202 normal
// Not fulfilled strictly below 5 in enzyme activity; Fulfilled otherwise

# compound, class
measured = [
    ("C[C@@H](O)[C@H](N)C(=O)N1CCC[C@H]1C(=O)Nc1ccc2c(c1)Oc1cc(NC(=O)[C@@H]3CCCN3C(=O)[C@@H](N)[C@@H](C)O)ccc1C21OC(=O)c2ccccc21 [TP]", "Not fulfilled"),
    ("CC(C)C[C@H](N)C(=O)NCC(=O)Nc1ccc2c(c1)Oc1cc(NC(=O)CNC(=O)[C@@H](N)CC(C)C)ccc1C21OC(=O)c2ccccc21 [LG]", "Not fulfilled"),
]

Q: Quick check: does NCC(=O)Nc1ccc2c(c1)Oc1cc(NC(=O)CN)ccc1C21OC(=O)c2ccccc21 [GLY, (Gly)2 Rho 110] have enzyme activity greater than or equal to 5?
Result: Fulfilled

Q: Quick check: does NC(=O)CC[C@H](N)C(=O)N[C@@H](CO)C(=O)Nc1ccc2c(c1)Oc1cc(NC(=O)[C@H](CO)NC(=O)[C@@H](N)CCC(N)=O)ccc1C21OC(=O)c2ccccc21 [QS, (H--L--Gln--Ser)2 Rho 110-2TFA] have enzyme activity greater than or equal to 5?
Result: Not fulfilled

Q: Quick check: does C[C@H](N)C(=O)Nc1ccc2c(c1)Oc1cc(NC(=O)[C@H](C)N)ccc1C21OC(=O)c2ccccc21 [ALA, (Ala)2 Rho 110] have enzyme activity greater than or equal to 5?
Result: Fulfilled

Q: Quick check: does CC(C)[C@H](N)C(=O)N[C@@H](CO)C(=O)Nc1ccc2c(c1)Oc1cc(NC(=O)[C@H](CO)NC(=O)[C@@H](N)C(C)C)ccc1C21OC(=O)c2ccccc21 [VS, (H--L--Val--Ser)2 Rho 110-2TFA] have enzyme activity greater than or equal to 5?
Result: Not fulfilled

Q: Quick check: does NCCCC[C@H](N)C(=O)Nc1ccc2c(c1)Oc1cc(NC(=O)[C@@H](N)CCCCN)ccc1C21OC(=O)c2ccccc21 [LYS, (H--L--Lys)2 Rho 110-4TFA] have enzyme activity greater than or equal to 5?
Result: Fulfilled

Q: Quick check: does NCC(=O)N1CCC[C@H]1C(=O)Nc1ccc2c(c1)Oc1cc(NC(=O)[C@@H]3CCCN3C(=O)CN)ccc1C21OC(=O)c2ccccc21 [GP] have enzyme activity greater than or equal to 5?
Result: Fulfilled

This collection of values is drawn from patent US5733719A.
